Recorded IC50 values (TEC (Homo sapiens)) are given below.

Consider the reported IC50 for these compounds:
1) COc1ccc(F)cc1C(=O)NCc1ccc(-c2ncc(-c3ccc(C(F)(F)F)cn3)c3[nH]nc(N)c23)cc1 [Example 24] : 0.05 to 0.5 µM
2) COc1ccc(F)cc1C(=O)NCc1ccc(-c2ncc(-c3ccc4cn[nH]c4n3)c3[nH]nc(N)c23)cc1 [Example 47] : 0.005 to 0.05 µM

Entry COc1ccc(F)cc1C(=O)NCc1ccc(-c2ncc(-c3cc4ccccn4n3)c3[nH]nc(N)c23)cc1 [Example 69] has what IC50?
0.001 to 0.005 µM

###

Target: BTK C481S (Homo sapiens, UniProt Q06187, C481S)
Sequence (Q06187 whole entry C481S): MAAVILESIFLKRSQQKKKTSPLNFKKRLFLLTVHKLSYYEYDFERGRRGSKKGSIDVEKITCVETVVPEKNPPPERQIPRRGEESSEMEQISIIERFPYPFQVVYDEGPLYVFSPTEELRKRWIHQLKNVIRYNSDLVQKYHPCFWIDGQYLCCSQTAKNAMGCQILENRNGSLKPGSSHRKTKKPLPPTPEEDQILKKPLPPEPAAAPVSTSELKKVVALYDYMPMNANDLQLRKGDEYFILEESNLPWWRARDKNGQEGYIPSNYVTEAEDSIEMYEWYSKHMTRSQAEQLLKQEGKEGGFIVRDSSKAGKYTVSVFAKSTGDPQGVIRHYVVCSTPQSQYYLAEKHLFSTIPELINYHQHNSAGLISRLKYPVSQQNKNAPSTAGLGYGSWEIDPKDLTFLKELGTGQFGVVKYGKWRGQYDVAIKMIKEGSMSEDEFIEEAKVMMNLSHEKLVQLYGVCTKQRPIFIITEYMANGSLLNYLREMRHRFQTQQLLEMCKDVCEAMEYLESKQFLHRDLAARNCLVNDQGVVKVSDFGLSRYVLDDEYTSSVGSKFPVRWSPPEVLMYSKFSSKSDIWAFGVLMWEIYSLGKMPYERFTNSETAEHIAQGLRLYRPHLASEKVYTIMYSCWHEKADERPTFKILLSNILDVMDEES
Test: Kinase activity inhibition assay (HTRF TK Kit)
IC50 values, listed per item

Consider the reported IC50 for these compounds:
1. COc1ccc(F)cc1C(=O)NCc1ccc(-c2ncc(-c3ccncn3)c3[nH]nc(N)c23)cc1 : 1 to 5 nM
2. COc1ccc(F)cc1C(=O)NCc1ccc(-c2ncc(-c3nc4cnccn4n3)c3[nH]nc(N)c23)cc1 : ≤ 1 nM
3. COc1ccc(F)cc1C(=O)NCc1ccc(-c2ncc(-c3cnn4cccnc34)c3[nH]nc(N)c23)cc1 : 1 to 5 nM
4. COc1ccc(F)cc1C(=O)NCc1ccc(-c2ncc(-c3ccc(N4CCN(C)C[C@@H]4C)cn3)c3[nH]nc(N)c23)cc1 : 1 to 5 nM
5. COc1ccc(F)cc1C(=O)NCc1ccc(-c2ncc(-c3ccc(OCCN4CCOCC4)cn3)c3[nH]nc(N)c23)cc1 : ≤ 1 nM
6. COc1ccc(F)cc1C(=O)NCc1ccc(-c2ncc(-c3ccc(N4CCN(C)C[C@H]4C)cn3)c3[nH]nc(N)c23)cc1 : ≤ 1 nM
7. COc1ccc(F)cc1C(=O)NCc1ccc(-c2ncc(-c3ccc(OC(F)(F)F)cn3)c3[nH]nc(N)c23)cc1 : ≤ 1 nM
8. CCN1CCn2nc(-c3cnc(-c4ccc(CNC(=O)c5cc(F)ccc5OC)cc4)c4c(N)n[nH]c34)cc2C1 : ≤ 1 nM

Now examine the next entry.
Entry "COc1ccc(F)cc1C(=O)NCc1ccc(-c2ncc(-c3ccc(OCCN(C)C)cn3)c3[nH]nc(N)c23)cc1" has what IC50?
≤ 1 nM

###

Test system: Ramos cells with BTK WT
Assay: Phosphor-BTK(Y223) assay, suspended cells
Format: cell-based
Conditions: Homo sapiens, Ramos, phosphorylated BTK Y223, Ramos cells with BTK WT
pIC50: −log10 of the molar value.
pIC50 values, listed per item

Consider the reported pIC50 for these compounds:
1. COc1ccc(F)cc1C(=O)NCc1ccc(-c2ncc(-c3nc4cccnc4s3)c3[nH]nc(N)c23)cc1 : ≥ 8.30
2. COc1ccc(F)cc1C(=O)NCc1ccc(-c2ncc(-c3nccn4nccc34)c3[nH]nc(N)c23)cc1 : ≥ 8.30
3. COc1ccc(F)cc1C(=O)NCc1ccc(-c2ncc(-c3cccnn3)c3[nH]nc(N)c23)cc1 : 7.30 to 8.00
4. COc1ccc(F)cc1C(=O)NCc1ccc(-c2ncc(-c3nc4cnccn4n3)c3[nH]nc(N)c23)cc1 : 7.30 to 8.00
5. COc1ccc(F)cc1C(=O)NCc1ccc(-c2ncc(-c3ccn(C)n3)c3[nH]nc(N)c23)cc1 : ≥ 8.30
6. COc1ccc(F)cc1C(=O)NCc1ccc(-c2ncc(-c3ccnnc3)c3[nH]nc(N)c23)cc1 : < 7.30

Entry "COc1ccc(F)cc1C(=O)NCc1ccc(-c2nc(C3CCS(=O)(=O)CC3)cc3[nH]nc(N)c23)cc1" has what pIC50?
< 7.30

Field entry: "COc1ccc(F)cc1C(=O)NCc1ccc(-c2ncc(-c3ccc(OCCN4CCOCC4)cn3)c3[nH]nc(N)c23)cc1"
≥ 8.30

Field entry: "COc1ccc(F)cc1C(=O)NCc1ccc(-c2ncc(-c3ccc(S(C)(=O)=O)cn3)c3[nH]nc(N)c23)cc1"
≥ 8.30
